- Tested on: p-MAPKAPK2
- experimental_details: Inhibition of p-MAPKAPK2 in vitro, anisomycin-stimulated RAW 264.7 cells, ELISA
- Assay type: cell-based, murine
- condition_summary: Mus musculus, RAW264.7; RAW 264.7 cells, 2 hours compound, anisomicin 100 ug/ml 30 minutes; read-out: IC50, inhibition of p-MAPKAPK2 in vitro
pIC50: −log10 of the molar value. Counter-ions that a name gives are not always drawn.
Readings of pIC50 for the listed molecules

- molecule: "Cc1ccc(-n2nc(C(C)(C)C)cc2NC(=O)Nc2ccc(OC3CCN(C(=O)C4(C)CC4)CC3)nc2C)cc1"
  pIC50: 6.75
- molecule: "Cc1ccc(-n2nc(C(C)(C)C)cc2NC(=O)Nc2ccc(OC3CCN(C(=O)c4ccc(Cl)s4)CC3)nc2)cc1"
  pIC50: 7.80
- molecule: "Cc1ccc(-n2nc(C(C)(C)C)cc2NC(=O)Nc2cnc(N3CCN(C(=O)C4(C)CC4)CC3)cc2C)cc1 [Example 128, mesylate]"
  pIC50: 6.54
- molecule: "Cc1ccc(-n2nc(C(C)(C)C)cc2NC(=O)Nc2ccc(N3CCN(C(=O)c4c(Cl)cccc4Cl)CC3)nc2C)cc1 [Example 45, methanesulfonate]"
  pIC50: 8.17

###

- experimental_details: Oral exposure in male Fischer 344 rats
- Assay type: in vivo
- condition_summary: rat, 1 mg/kg, fasted, gavage, suspension 1 mg/mL at 1 mL/kg, plasma

- smiles_string: "CS(=O)(=O)O.Cc1ccc(-n2nc(C(C)(C)C)cc2NC(=O)Nc2ccc(N3CCN(C(=O)c4c(F)cccc4F)CC3)nc2C)cc1"
  value_unit: "ng/mL"
  Cmax: 9390

###

- experimental_details: Oral exposure in male Fischer 344 rats
- Format: in vivo
- condition_summary: rat, 1 mg/kg, fasted, gavage, suspension 1 mg/mL at 1 mL/kg, plasma, read-out: AUC(0-7h)

- compound: "CS(=O)(=O)O.Cc1ccc(-n2nc(C(C)(C)C)cc2NC(=O)Nc2ccc(N3CCN(C(=O)c4c(F)cccc4F)CC3)nc2C)cc1 [Example 5]"
  AUC(0-t): "36800 ng·h/mL"
